Assay: Antagonist activity against human CXCR3 expressed in human PBMC assessed as inhibition of cell migration in response to MIG in buffer
Measurement label: IC50

| Molecule smiles | Measurement label | Recorded result |
| --- | --- | --- |
| CCS(=O)(=O)CCN(C(=O)Cc1ccc(F)c(C(F)(F)F)c1)[C@H](C)c1nc2ncccc2c(=O)n1-c1ccc(OCC(F)(F)F)cc1 | IC50 | 0.6 nM |

---

Test: Antagonist activity against human CXCR3 expressed in human PBMC assessed as inhibition of cell migration in response to IP10 in buffer
pIC50: −log10 of the molar value.

| Molecule smiles | pIC50 |
| --- | --- |
| CCS(=O)(=O)CCN(C(=O)Cc1ccc(F)c(C(F)(F)F)c1)[C@H](C)c1nc2ncccc2c(=O)n1-c1ccc(OCC(F)(F)F)cc1 | 9.40 |

---

Test: Antagonist activity against human CXCR3 expressed in human PBMC assessed as inhibition of cell migration in response to ITAC in plasma
pIC50: −log10 of the molar value.
Quick list: pIC50 per entry.

| Molecule smiles | pIC50 |
| --- | --- |
| CCOc1ccc(-n2c([C@@H](C)N(C(=O)Cc3ccc(F)c(C(F)(F)F)c3)C3CCOCC3)nc3ncccc3c2=O)cc1 | 6.79 |
| CCS(=O)(=O)CCN(C(=O)Cc1ccc(F)c(C(F)(F)F)c1)[C@H](C)c1nc2ncccc2c(=O)n1-c1ccc(OCC(F)(F)F)cc1 | 7.82 |
| CCOc1ccc(-n2c([C@@H](C)N(C(=O)Cc3ccc(F)c(C(F)(F)F)c3)C3CCN(C(C)C)CC3)nc3ncccc3c2=O)cc1 | 8.30 |
| CCOc1ccc(-n2c([C@@H](C)N(CCS(=O)(=O)CC)C(=O)Cc3ccc(F)c(C(F)(F)F)c3)nc3ncccc3c2=O)cc1 | 7.66 |
| CCOc1ccc(-n2c([C@@H](C)N(Cc3cccnc3)C(=O)Cc3ccc(F)c(C(F)(F)F)c3)nc3ncccc3c2=O)cc1 | 7.70 |
| CCOc1ccc(-n2c([C@@H](C)N(C[C@@H]3CCCN3C(C)C)C(=O)Cc3ccc(F)c(C(F)(F)F)c3)nc3ncccc3c2=O)cc1 | 7.10 |
| CCOc1ccc(-n2c([C@@H](C)N(Cc3cccnc3)C(=O)Cc3ccc(F)c(C(F)(F)F)c3)nc3cnccc3c2=O)cc1 | 7.64 |
| CCOc1ccc(-n2c([C@@H](C)N(Cc3cc(C)no3)C(=O)Cc3ccc(F)c(C(F)(F)F)c3)nc3ncccc3c2=O)cc1 | 7.23 |
| CCOc1ccc(-n2c([C@@H](C)N(C[C@H]3CCCN3)C(=O)Cc3ccc(F)c(C(F)(F)F)c3)nc3ncccc3c2=O)cc1 | 7.70 |
| CCOc1ccc(-n2c([C@@H](C)N(C[C@H]3CCCN3C(C)C)C(=O)Cc3ccc(F)c(C(F)(F)F)c3)nc3ncccc3c2=O)cc1 | 8.00 |
| CCOc1ccc(-n2c([C@@H](C)N(Cc3cccnc3)C(=O)Cc3cc(C(F)(F)F)cc(C(F)(F)F)c3)nc3ccccc3c2=O)cc1 | 7.77 |
| CCOc1ccc(-n2c([C@@H](C)N(Cc3cccnc3)C(=O)Cn3cnc(C(F)(F)F)c3)nc3ccccc3c2=O)cc1 | 6.35 |
| CCOc1ccc(-n2c([C@@H](C)N(Cc3ccc[n+]([O-])c3)C(=O)Cc3ccc(OC(F)(F)F)cc3)nc3ncccc3c2=O)cc1 | 7.24 |
| CCOc1ccc(-n2c([C@@H](C)N(CC3CCN(C)CC3)C(=O)Cc3ccc(F)c(C(F)(F)F)c3)nc3ncccc3c2=O)cc1 | 7.70 |
| CCOc1ccc(-n2c([C@@H](C)N(C(=O)Cc3ccc(F)c(C(F)(F)F)c3)C3CCN(C(C)=O)CC3)nc3ncccc3c2=O)cc1 | 6.88 |

These measurements were taken from BindingDB's records for doi:10.1016/j.bmcl.2009.07.032.
